Where do the numbers come from? From patent US20190322750A1.

# SUBJECT_OF_TEST: M2
# MEASUREMENT_PROTOCOL: ELISA on coated antigen, column M2
Kindly state absorbance at 490 nm for each of the entries shown.
Answers are plain numbers.

In the examples that follow, each entry is paired with its recorded absorbance at 490 nm.
[
  {
    "BINDER": "PDL1-27F8 (antibody, V domains shown, Only FR/CDR pieces are tied to the clone) VH: QVQLVQSGAEVKKPGSSVKVSCKASGGTFSSSAFSWVRQAPGHGLEWMGRIIPMFDMTDYAQRFQGRLTIIADESSSTAYMELSSLRSEDTAVYYCARSNPHYMDVWGQGTTVTVSS VL: QLVLTQPPSVSGAPGQRVTISCTGSNSDIGAGHDVHWYQQIPGTAPKVLIYGNTDRPSGVPDRFSGSKSGTSASLAITGLQAEDEADYYCQSYDSSLSGYVFGTGTKVTVL",
    "absorbance at 490 nm": 2.5
  },
  {
    "BINDER": "PDL1-11A7 (antibody, V domains shown, Only FR/CDR pieces are tied to the clone) VH: QVQLVQSGAEVKKPGASVKVSCKVSGYTLTELSMHWVRQAPGKGLEWMGGFDPEDGETIYAQKFQGRVTMTEDTSTDTAYMELSSLRSEDTAVYYCARDPWGGYYGMDVWGQGTTVTVSS VL: DIQMTQSPSSVSASVGDRVTINCRASQGIRTWLAWYQQKPGKAPKLLIYAASNLQSGVPSRFSGSGSGTDFTLTIASLQPEDFATYYCQQANSFPLTFGGGTKVEIK",
    "absorbance at 490 nm": 2.3
  }
]

Now take the following binder into account.
Lab note: PDL1-22B10 (antibody, V domains shown, Only FR/CDR pieces are tied to the clone) VH: QVQLVQSGAEVKKPGSSVKVSCRASGGTFSSYAISWVRQAPGQGLEWMGRIIPILGIANYAQKFQGRVTITADKSTSTAYMELSSLRSEDTAVYYCARDFVLSGSATVFDPWGQGTLVTVSS VL: QFVLTQPPSVSGAPGQRVTISCTGSSTNIGAGYDVHWYQQLPGKAPKVVIYGNSNRPSGVLDRFSASKSATSASLAITGLQAEDEADYYCQSYDSSLSGYVFGTGTKVTVL gave absorbance at 490 nm of 2.3
